Target: Melatonin receptor (Gallus gallus) (UniProt P49288+P51050+P49285)
Conditions: Coturnix
Rule: pRA of -2 or more gives met; anything lower gives not met.

Illustrative cases are given below, each with its answer.
INSERT INTO measurements (compound, classification) VALUES
  ('CC(=O)NCCc1c[nH]c2ccc(C)cc12', 'not met'),
  ('CCC(=O)NCCc1c(OC)ccc2cc(OC)ccc12', 'met'),
  ('CC(=O)NCCc1cccc2ccc3c(c12)CCCO3', 'met'),
  ('CCC(=O)NC1CCc2[nH]c3ccc(OC)cc3c2C1 (configuration not stated)', 'met'),
  ('COc1ccc2[nH]cc(CCNC(C)=O)c2c1', 'met'),
  ('CC(=O)NCCCc1cccc(Br)c1', 'not met'),
  ('COc1ccc2ccccc2c1CCNC(C)=O', 'met'),
  ('CCC(=O)NCCn1c(C(=O)OC)cc2ccc(OC)cc21', 'met');

Query: Is it the case that COc1ccc2[nH]c(C)c(CCNC(C)=O)c2c1 has pRA reaching or exceeding -2?
Response: met

Query: Is it the case that CCC(=O)NCCc1c[nH]c2ccc(OC)cc12 has pRA reaching or exceeding -2?
Response: met

----------
Molecular target: Melatonin receptor (Gallus gallus) (UniProt P49288+P51050+P49285)
Conditions: Coturnix
Assign pRA to each entry below.
Give bare numbers.

Sample answers from the record:
INSERT INTO results (compound, target_or_system, reported) VALUES
  ('COc1cc2[nH]cc(CCNC(C)=O)c2cc1OC', 'Melatonin receptor (Gallus gallus) (UniProt P49288+P51050+P49285)', -2.12),
  ('CC(=O)NCCc1cccc2ccccc12', 'Melatonin receptor (Gallus gallus) (UniProt P49288+P51050+P49285)', -2.68),
  ('CCC(=O)NCCCCc1ccccc1OC', 'Melatonin receptor (Gallus gallus) (UniProt P49288+P51050+P49285)', -2.76),
  ('CC(=O)NCCc1cccc2ccc(O)cc12', 'Melatonin receptor (Gallus gallus) (UniProt P49288+P51050+P49285)', -1.65),
  ('COc1ccc2[nH]c3c(c2c1)CC(NC(C)=O)CC3 (configuration not stated)', 'Melatonin receptor (Gallus gallus) (UniProt P49288+P51050+P49285)', -2.57),
  ('CC(=O)NCCc1c[nH]c2ccc(OCCO)cc12', 'Melatonin receptor (Gallus gallus) (UniProt P49288+P51050+P49285)', -2.69);

Provide pRA values for the following items, in order.
1. CCc1ccc(OC)c(CCNC(C)=O)c1
2. CCC(=O)NCCn1c(-c2ccccc2)cc2ccccc21
3. COc1ccc2scc(CCNC(C)=O)c2c1

Response:
1. -2.51
2. -1.58
3. -0.79

----------
Target: Melatonin receptor (Gallus gallus) (UniProt P49288+P51050+P49285)
Conditions: Coturnix
Metric: pRA
Answers are plain numbers.

Sample answers from the record:
INSERT INTO measurements (compound, metric, reported) VALUES
  ('CC(=O)NCCc1c[nH]c2ccc(Br)cc12', 'pRA', -1.45),
  ('COc1ccc2c(CCNC(C)=O)cccc2c1', 'pRA', -2.73);

Then this compound:
Query: Given the entry COc1ccc2[nH]cc3c2c1CCC3CNC(C)=O (stereo not drawn) , report its measured pRA.
Response: -0.65
